- measurement.target: PDGF-AA (Homo sapiens, UniProt P04085 P04085:87-211)
- assay.explanation: filter; 37 C; comparable to random DNA
- study.conditions: tags: R&D Systems, E. coli, long form A-chain; chain copies: 2; label: 5'-32P; three-way helix junction
- Procedure: D. Determination of the Apparent Equilibrium Dissociation Constants and the Dissociation Rate Constants The binding of ssDNA ligands at low concentrations to varying concentrations of PDGF was determined by the nitrocellulose filter binding method as described (Green et al., (1995) *Chemistry and Biology* 2: 683–695). […] The fraction of ^32P 5' end-labeled DNA ligands bound to varying concentrations of PDGF was determined by the nitrocellulose filter binding method. […]
measure.name: Kd (nM)
Please respond with the number in nM and leave the unit unwritten.

TGGGAGGGCGCGTTCTTCGTGGTTACTTTTAGTCCCG (ssDNA, 3'-3' inverted T) [20t] yielded Kd of 47
